Each entry below lists one item and its recorded shrunken log2 fold change value.
test system: Escherichia coli TOP10; assay: shrunken log2 fold change of peptide-encoding DNA abundance (4.5 h post-induction vs induction); higher = less antimicrobial activity (less host growth inhibition); conditions: time post-induction: 4.5 h; library: site-saturation at positions 5, 18, 19, 20
The reply should be a number, written without any unit.

// solved cases for shrunken log2 fold change follow
Ask | Lookup: shrunken log2 fold change / Escherichia coli TOP10 / RRIRDRPPRLPRPRPRPSMQPRP
Reply | -0.157

Ask | Try the sequence RRIRNRPPRLPRPRPRPLRPPRP
Reply | 0.998

Next sequence, please.
Ask | Give the reported shrunken log2 fold change for RRIRMRPPRLPRPRPRPKSQPRP (system: Escherichia coli TOP10).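 Also: peptides expressed intracellularly from a pBAD plasmid library in pooled LB shake-flask culture, induced with 0.3% L-arabinose, DNA abundance read by NGS, three biological replicates, DESeq2 with apeglm shrinkage.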
Reply | 2.06
